- Tested on: E21 (patient-derived glioblastoma stem cells of mesenchymal subtype);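 note: nuclei counted by high-content imaging of Hoechst-stained cells in laminin-coated 384-well plates, relative to 0.1% DMSO vehicle wells, with staurosporine as cell-death control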
- experiment-summary: surviving fraction (nuclei count normalised to DMSO); higher = more cells surviving (less toxic)
- setup-conditions: 37 nM; exposure time: 72 h
Counter-ions that a name gives are not always drawn.
quantity: surviving fraction

[[record]]
molecule = "CCC[C@@H]1C[C@@H](C(=O)N[C@@H]([C@H]2O[C@H](SC)[C@H](O)[C@@H](O)[C@H]2O)[C@@H](C)O)N(C)C1 [Lincomycin hydrochloride]"
target_entity = "E21"
quantity = "surviving fraction"
value_measured = 0.963

[[record]]
molecule = "O=C1CC[C@@H](C(=O)N2CSC[C@H]2C(=O)O)N1"
target_entity = "E21"
quantity = "surviving fraction"
value_measured = 0.984

[[record]]
molecule = "Cc1ccc(/C=N/NC(=O)c2n[nH]c3c2CCCC3)cc1"
target_entity = "E21"
quantity = "surviving fraction"
value_measured = 0.982

